meta.source: patent US20260258039A1

- Study System: ER (Homo sapiens, UniProt P03372)
- Construct: T47D breast cancer cells were subcultured in cell culture medium; endogenous in cells; host or cells: T47D breast cancer cells
- Test Description: Degradation activities on ER (ELISA) in T47D breast cancer cells
- Format: cell-based
- Applied Conditions: T47D cells, 24 h, ELISA; maximum percentage of target protein degraded; read-out: Dmax
Measured Quantity: Dmax

[[record]]
molecule = "O=C1CCC(N2Cc3cc(N4CC5(CCN(CC6CCN(c7ccc([C@@H]8c9ccc(O)cc9OC[C@@H]8c8cc(F)ccc8F)cc7)CC6)CC5)C4)ccc3C2=O)C(=O)N1 (some centres unmarked)"
recorded_result = "50 to 75%"

[[record]]
molecule = "O=C1CCC(N2Cc3cc(N4CC5(CCN(CC6CCN(c7ccc([C@@H]8c9ccc(O)cc9OC[C@@H]8c8ccccc8F)cc7)CC6)CC5)C4)ccc3C2=O)C(=O)N1 (some centres unmarked)"
recorded_result = "50 to 75%"

[[record]]
molecule = "O=C1CCC(N2Cc3cc(N4CCC(N5CC6(CCN(c7ccc([C@@H]8c9ccc(O)cc9CC[C@@H]8c8ccccc8F)cc7)CC6)C5)CC4)ccc3C2=O)C(=O)N1 (some centres unmarked)"
recorded_result = "> 75%"


What does the data say about its Dmax? Entry: O=C1CCC(N2Cc3cc(N4CC5(CCN(CC6CCN(c7c(F)cc([C@H]8c9ccc(O)cc9OC[C@H]8c8c(F)cccc8F)cc7F)CC6)CC5)C4)ccc3C2=O)C(=O)N1 (some centres unmarked)
< 50%

Another molecule: O=C1CCC(N2Cc3cc(N4CC5(CCN(CC6CCN(c7c(F)cc([C@@H]8c9ccc(OCc%10ccccc%10)cc9OC[C@@H]8c8ccccc8F)cc7F)CC6)CC5)C4)ccc3C2=O)C(=O)N1 (some centres unmarked)
< 50%

Another molecule: O=C1CCC(N2Cc3cc(N4CC5(CCN(CC6CCN(c7ccc([C@H]8c9ccc(O)cc9OC[C@H]8c8cccc(F)c8F)cc7F)CC6)CC5)C4)ccc3C2=O)C(=O)N1 (some centres unmarked)
< 50%

Another molecule: O=C1CCC(N2Cc3cc(N4CC5(CCN(CC6CCN(c7ccc([C@@H]8c9ccc(O)cc9OC[C@@H]8CC(F)(F)F)cc7)CC6)CC5)C4)ccc3C2=O)C(=O)N1 (some centres unmarked)
50 to 75%

Another molecule: O=C1CCC(N2C(=O)c3ccc(N4CC5(CN(CC6CCN(c7ccc([C@@H]8c9ccc(O)cc9CC[C@@H]8c8ccccc8)cc7)CC6)C5)C4)cc3C2=O)C(=O)N1 (some centres unmarked)
< 50%

Another molecule: O=C1CCC(N2Cc3cc(N4CC5(CCN(CC6CCN(c7ccc([C@@H]8c9ccc(O)cc9OC[C@@H]8c8ccc(F)cc8F)cc7)CC6)CC5)C4)ccc3C2=O)C(=O)N1 (some centres unmarked)
50 to 75%

Another molecule: O=C1CCC(N2Cc3cc(N4CCC(N5CC6(CCN(c7ccc([C@@H]8c9ccc(O)cc9OC[C@@H]8c8ccccc8F)cc7)CC6)C5)CC4)ccc3C2=O)C(=O)N1 (some centres unmarked)
> 75%

Another molecule: O=C1CC[C@@H](N2Cc3cc(N4CC5(CCN(CC6CCN(c7ccc([C@@H]8c9ccc(O)cc9OC[C@@H]8c8c(F)cccc8F)cc7F)CC6)CC5)C4)ccc3C2=O)C(=O)N1
< 50%

* * *

Parameter: DC50. Scope: all listed entries.
- Study System: ER (Homo sapiens, UniProt P03372)
- Construct: T47D breast cancer cells were subcultured in cell culture medium; endogenous in cells; host or cells: T47D breast cancer cells
- Test Description: Degradation activities on ER (ELISA) in T47D breast cancer cells
- Assay type: cell-based
- Applied Conditions: T47D cells, 24 h, ELISA; concentration required to degrade 50% of the target protein

What does the data say about its DC50? Entry: O=C1CCC(N2Cc3cc(N4CC5(CCN(CC6CCN(c7ccc([C@@H]8c9ccc(O)cc9OC[C@@H]8c8ccc(F)cc8)cc7)CC6)CC5)C4)ccc3C2=O)C(=O)N1 (some centres unmarked)
< 10 nM

Another compound: O=C1CCC(N2Cc3cc(N4CCC(N5CC6(CCN(c7ccc([C@@H]8c9ccc(O)cc9CC[C@@H]8c8ccccc8)cc7)CC6)C5)CC4)ccc3C2=O)C(=O)N1 (some centres unmarked)
10 to 50 nM

Another compound: O=C1CCC(N2C(=O)c3ccc(N4CCC(CN5CCC6(CC5)CN(c5ccc([C@@H]7c8ccc(O)cc8CC[C@@H]7c7ccccc7)cc5)C6)CC4)cc3C2=O)C(=O)N1 (some centres unmarked)
< 10 nM

Another compound: O=C1CCC(N2Cc3cc(N4CC5(CCN(CC6CCN(c7ccc([C@@H]8c9ccc(O)cc9OC[C@@H]8CC(F)(F)F)cc7)CC6)CC5)C4)ccc3C2=O)C(=O)N1 (some centres unmarked)
10 to 50 nM

Another compound: O=C1CCC(N2Cc3cc(N4CC5(CCN(CC6CCN(c7c(F)cc([C@@H]8c9ccc(O)cc9OC[C@@H]8c8ccccc8F)cc7F)CC6)CC5)C4)ccc3C2=O)C(=O)N1 (some centres unmarked) [Example 50]
< 10 nM
